Source listed as patent US9481667B2.

Assay: Storage at 40° C./75% RH (solid-state stability)
Assay type: physicochemical
Conditions: 1 week; solid form by XRPD
Where a name gives a salt, the structure may show the parent alone.
REPORTED ENDPOINT: Stability on storage at 40° C./75% RH

Example entries and their recorded answers appear below.
COMPOUND | Stability on storage at 40° C./75% RH
COc1cc(-c2cccc3cc([C@H](C)Nc4nc(N)ncc4C#N)n(-c4ccccc4)c(=O)c23)ccn1 [Form 2 of the free base of Compound 1] | stable
COc1cc(-c2cccc3cc([C@H](C)Nc4nc(N)ncc4C#N)n(-c4ccccc4)c(=O)c23)ccn1 [Form 1 of the hydrochloride salt of Compound 1] | deliquesces
COc1cc(-c2cccc3cc([C@H](C)Nc4nc(N)ncc4C#N)n(-c4ccccc4)c(=O)c23)ccn1 [Form 1 of the 1,2-ethanedisulfonic acid salt of Compound 1] | stable
COc1cc(-c2cccc3cc([C@H](C)Nc4nc(N)ncc4C#N)n(-c4ccccc4)c(=O)c23)ccn1 [Form 1 of the sulfuric acid salt of Compound 1] | stable
COc1cc(-c2cccc3cc([C@H](C)Nc4nc(N)ncc4C#N)n(-c4ccccc4)c(=O)c23)ccn1 [Form 1 of the free base of Compound 1] | stable
COc1cc(-c2cccc3cc([C@H](C)Nc4nc(N)ncc4C#N)n(-c4ccccc4)c(=O)c23)ccn1 [Form 1 of the isethionate salt of Compound 1] | deliquesces

Attention now shifts to the item below.
Inquiry: I'd like to know its Stability on storage at 40° C./75% RH. The compound in question is COc1cc(-c2cccc3cc([C@H](C)Nc4nc(N)ncc4C#N)n(-c4ccccc4)c(=O)c23)ccn1 [Form 1 of the maleic acid salt of Compound 1]
Reply text: stable
